Test: yeast display, Sf9 membrane polyspecificity reagent, FACS + sequencing; frameworks hold sequencing errors
reported property: polyreactivity (PSR sort gate)

residue sequence	data value
QVQLVESGGGLVQAGGSLRLSCAASGRIFQLYAMGWYRQAPGKERELVAANAWSGGSTYYADSVKGRFTISRDNAKNSVYLQMNSLKPEDTAVYDCAVEGYHGSRRYYYWGQGTQVTVSS	high polyreactivity
QVQLVESGGGLVQAGGSLRLSCAASGSTFGFYAMGWYRQAPGKERELVAAISSSGSTYYADSVKGRFTISRDNAKNTVYLQMISLKPEDTAVYYCAAQPGYYDYDYWGQGTQVTVSS	low polyreactivity
QVQLVESGGGLVQAGGSLRLSCAASGSIFWNYAMGWYRQAPGKERELVASITSGGSTNYADSVKGRFTISRDNEKNTVYLQMNSLKQEDTAVYSCNTDDDSSYTGYYSWGQGTQVTVSS	low polyreactivity
QVQLVESGGGLVQAGGSLRLSCAASGSIFPYYAMGWYRQAPGKEREFVAAITISGGSTYYADSVKGRFTISRDNAKNTVYLQMNSLKPEDTAVYYCAVDRGISVGYTRFDYWGKGTQVTVSS	low polyreactivity

Now, please, on to the next sequence.
So for QVQLVESGGGLVQAGGSLRLSCAASGRTFAYNAMGWYRQAPGKERELVAGITGGNSRTYYADSVKGRFTISRDNAKNTVYLQMNSLKPEDTAVYYCARRFYKGTSKTNLFDYWGQGTQVTVSS , the logged polyreactivity (PSR sort gate) turned out to be high polyreactivity

====

Assay: yeast display, Sf9 membrane polyspecificity reagent, FACS + sequencing; frameworks hold sequencing errors
reported property: polyreactivity (PSR sort gate)

The following sequences have reported results that may help.
residue sequence	polyreactivity (PSR sort gate)
QVQLVESGGGLVQAGGSLRLSCAASGSIFYGNVMGWYRQAPGKERELVAAISWRGGSTYYADSVKGRFTMSRDNAKNTVYLPMNSLKPEDTAVYYCNAERYYYATYGYPIDYWGQGTQVTVSS	low polyreactivity
QVQHVESGGGLVQAGGSLRLSCAASGSTFYGYAMGWYRQAPGKERELVARISSSSGRTYYADSVKGRFTISRDNAKNTVYLQMNSLKPEDTAVFYCAARFLWSVFGRKGGYWGQGTQVTVSS	low polyreactivity
HVQLVESGGGLVQAGGSLRLSCAASGLTFEDNDMGWYRQAPGKERELVAAISSAGSTSYADSVKGRFTISRVNAKNTVYLQMNSLKPEDTAVYYCAKDNSPSYTPAQLDGGDDYWGHGTQVTVSS	low polyreactivity
QVQLVESGGGLVQAGGSLRLSCAASGFTFSGYDMGWSRQAPGKERELVAGISSGGVSTTYADSVKGRFTISRDNAKNTVYLQMNSRKPEDTAVYYCNAEWTSFDWGQGTQVTVSS	low polyreactivity
QVQLVESGGGLVQAGGSLRLSCAASGSIFNRNAMGWYRQAPGKERELVASINYSGGSTYYADSVKGRFTISRDNAKNTVYLQMNSLKPEDTAVYYCAADGKTYYRGGGPYYIYYRYDYWGQGTQVTVSS	low polyreactivity
QVQLVESGGGLVQAGGSLRLRCAASGITFTINAMGWYRQAPGTEGELVATISINGGSTNYADSVKGRFTISRDNAKNTVYLQMNSLKPEDTAVYYCAADALGPFRFQFFYTTAYVYWGQGTQVTVSS	low polyreactivity

So for QVQLVESGGGLVQAGGSHRLSCAASGFTSAVNTMGWYRQAPGKEREFVASISRNGGSTYYADSVKGRFTITRDNAKNTVYLQINSLKPEDTAVYYCNTRVPNYAFRRSRYDYWGQGTQVTVSS , the logged polyreactivity (PSR sort gate) turned out to be high polyreactivity

So for QVQLVETGGGLVQAGGSLRLSCAASGSIFQYYAMGSYRQAPGKERELVAAISSGGRTNYADSVKGRFTISRENAKNSVYLQMNSLKPEDTAVYYCAAARYYYQVYRWEYDYWGQGTQVTVSS , the logged polyreactivity (PSR sort gate) turned out to be high polyreactivity

So for QVQLVESGGGLVQAGGSLRLSCDATGSIISYNTMGWYRQAPGKERELVAAITWGGRTYYADSVKGRFTISRDNAKNTVYLQMNSLKPEDTAVYYCAKRIRGGAPTYDYWGQRTQVTVSS , the logged polyreactivity (PSR sort gate) turned out to be low polyreactivity

So for QVQLVESGGGLVQAGGSLRLSCAASGIIFWGNAMGWYRQAPGKERELVATITGRGGSTYYADSVKGRFTISRDNAKNTVYLQMNSLKPEDTAVYYCAASGGRPIFFYDVWGGIVRHDYWGQGTQVTVSS , the logged polyreactivity (PSR sort gate) turned out to be low polyreactivity

So for QVQLVESGGGLVQAGGSLRLSCAASGSTFLYYTMGWYRQAPGKERELVAAITSGGDSNYADSVKGRFTISRDNAKNTVYLQMNSLKPEDTAVYYCNAEYTWSGTKIYTYKYDYWGQGTQVTVSS , the logged polyreactivity (PSR sort gate) turned out to be low polyreactivity

====

Experiment: yeast display, Sf9 membrane polyspecificity reagent, FACS + sequencing; frameworks hold sequencing errors

residue sequence	polyreactivity (PSR sort gate)
QVQLQESGGGLVQAGGSLRLSCAASGTIFRFRYMGWHRQAPGKERELVAGINGGTTTYYADSVIGRFTISRDNAKNTVYLQMNSLKPEDTAVYYCAADVNYYQHRLYYWGQGTQVTVSS	low polyreactivity
QVQLVESGGGLVQAGGSLRLSCAASGTFVTYMGWYRQAPGKERELVAAIRNGGSTNYADSVKGRFTISRDNAKNTVYLQMNSLKPEDTAVYYCAARVTYSRGYRGGSRTKYDYWGQGTQVTVSS	low polyreactivity
QVQLVESGGGLVQAGGSLRLSCAASGFTFSPNAMGWSTQAPGQEREVVAAITSGGNTYADSVKGRFTISRDNAKNSVYFQMNSLKPDDNAVYYCAKGEGYWYIARYLPVGYGYWGQGTQVTVSS	low polyreactivity

====

Assay: yeast display, Sf9 membrane polyspecificity reagent, FACS + sequencing; frameworks hold sequencing errors
reported property: polyreactivity (PSR sort gate)

residue sequence	reported property	data value
QVQLVESGGGLVQAGGSLRLSCAASGISIRSYAMGWYRQAPGKERELVAAIRSGGSTSYADSVKGRFTISRDNAKNTVYLLMNSLKPEDTAVYYCAAGGYVPLPDITFWKFGYWGQGTQVNVSS	polyreactivity (PSR sort gate)	low polyreactivity
QVQLVESGGGLVQAGGSLRLSCAASGRTFPAYAMGWYRQAPGKERELVAAISSGTSTYADSVKGRFTISRDNAKNTVYLQMNSLKPEDTAVYYCAAGYDRVHSVAGYDYWGQGTQVTVSS	polyreactivity (PSR sort gate)	low polyreactivity
QVQLEESGGGLVKAGGSLRLSSAASGITIGIYLIGWYRQAPGTESEFVATISRSDDNTYYADSVMGRFTISRDNAKNTVYLQMNSLKPEDSAVYYCPADGVISAWYSSRDDYWGKGTQVTVSS	polyreactivity (PSR sort gate)	low polyreactivity

====

Assay: yeast display, Sf9 membrane polyspecificity reagent, FACS + sequencing; frameworks hold sequencing errors
reported property: polyreactivity (PSR sort gate)

residue sequence	data value
QVQLVESGGGLVQAGGSLRLSCAASGRTFYGYAMGWYRQAPGKERELVAGITSRVGSTYYADSVKGRFTISRDNAKNTVYLQMNSLKPEDTAVYYCAADRYAVRSYHYDYWGQGTQVTVSS	low polyreactivity
QVQLVESGGGLVQAGGCLRISCAASGSIFPFYVMGRYRQAPGKERELVAAITRSGGSTYYADSVKGRFTISRDNAKNTVYLQMNSLKPEDTAVYYCAKRPHHGSTKYNYWGQGTQVTVSS	low polyreactivity

====

Test: yeast display, Sf9 membrane polyspecificity reagent, FACS + sequencing; frameworks hold sequencing errors
reported property: polyreactivity (PSR sort gate)

>>> print(df.to_string())
                           residue_sequence           data_value
0  QVQLVESGGGLVQAGGSLRLSCAASGFISPNAMGWYRQAPGKERELVAAISRSGGSTYYADSVKGRFTISRDNAKNTVYLQMNSLKTEDTAVYYCAAGRLYSYRRQYGYWGQGTQVTVSS  high polyreactivity
1  QVQLVESGGGLVQAGGILRLSCAASGRIFQHYPMGWYRQAPGKERELVAAISRSGDSTYYADSVKGRFTISRDNAKNTVYLQMNSLKPEDTAVYYCKIVRYSFLYDSWGQGTQVTVSS  high polyreactivity

====

Experiment: yeast display, Sf9 membrane polyspecificity reagent, FACS + sequencing; frameworks hold sequencing errors
reported property: polyreactivity (PSR sort gate)

The following sequences have reported results that may help.
residue sequence	polyreactivity (PSR sort gate)
QVQLVESGGGLVQAGGSLRLSCAASGFIFEWNAMGWYRQAPGKERELVASITFGGGNTYYADSVKGRFTISRDNAKNTVYLQMNSLKPEDTAVYYCAADDGVTYRGIIFSYLGQGTQVTVSS	low polyreactivity
QVQRVESGGGLVQAGGSLLLSCAASGRTFRPYTMGWYRQAPGTERELVARITSGGSTNYADSVKGSFTISRDNAKNTVYLQMNSLKPEDTAVYYCNKPGDRHRLDEDYWGQGTQVTVSS	low polyreactivity
QVQLVESGGGLVQAGGSLRLSCAASGRIFHWYAMGWYRQAPGKERELVAAIRWTGGSTYYADSVKGRFTISRDNAKNTVYLQMNSLKPEDTAVYYCAAKGYTGIFYEMDYWGQGTQVTVSS	low polyreactivity
QVQLVESGGGLVQAGGSLRLSCAASGGIFDSYAMGWYRQAPGKERELVADITWSGGSTYYADSVKGSFTISRDNAKNTVYLQMNSLKPEDTAVYLCAAVWNSPYDYWGQGTLVTVSS	low polyreactivity
QVQLVESGGGLVQAGGTLRLSCAASGSTFGYYAMGWYRQAPGKERELVAAISWRGGSTYYADSVKGRFTISRYNANNTVYLQMNSLKPEDTAVYYCAAPVGNYGSFDYWGQGTKVTVSS	low polyreactivity

So for QVRLVESGGGLVQAGGSLRLSCAASAFTFDSYAMGWNRQAPGKERELVAAITWSGGSTYYADSVKGRFTISRDIAKNTVYFQMNSLKPEDTAVYYCNVDRYDGDYCGQGTQVTVSS , the logged polyreactivity (PSR sort gate) turned out to be high polyreactivity

So for QVQLVESGGGLVQAGGSLSLSCAASGFTFYYYAMGWYRQAPGKERELVAAISTRDGNTYYADSVKGRFTISRDNAKNTVYLQMNSLKPEDTAVYYCAADYFRYYPYDYWGQGTQVTVSS , the logged polyreactivity (PSR sort gate) turned out to be low polyreactivity

So for QVHLEESGGRLVQAGGSLRLSCSDSGRIIPRNVMGLYRQAPGKERELVAAISSRGTRTYYADSVKGRFTISRDNAKNTVFLQMNSLKPEDTAVYYCAADGPYDGYDFWGQGTQVTVSS , the logged polyreactivity (PSR sort gate) turned out to be high polyreactivity

So for QVQLVESGGGLVQAGGSLRLSCAASGRTFVSYVMGWYRQAPGKERAFVAAISRSGGNTYYADSVKGRFTMSRDNAKNTVYLQMNSLKPEDTAVDYCAAKLGPLVYDHDYWGQGTQVTVSS , the logged polyreactivity (PSR sort gate) turned out to be high polyreactivity

So for QVQLVESGAGLVQAGGSLRLSCAASGLTFRSYAMGWYRQAPGKERELVAAITRSGGSTYYADSVKGRFTISRDNAKNTVYLQMNSLKPEDTAVYYCAARYKGNPDRYGYWGQGTQVTVSS , the logged polyreactivity (PSR sort gate) turned out to be high polyreactivity

So for QVQLVESRGGLVQAGGSIRLSCAASGITFGSYAMGWYRQAPGKERELVAAIDTSGDDTYYADSVKGRFTISRDNAKNTVYLQMNSLNPEDTAVYYCNAVSTASDEYDYWGQGTQVTVSS , the logged polyreactivity (PSR sort gate) turned out to be low polyreactivity
